- System: SF-295
- ASSAY DETAILS: NCI tumour cell line growth inhibition, 48 h
Active and inactive are the calls of the source. Rule as the data show it: active = GI50 up to about 1.1 µM and inactive = higher.
Could you please pick one outcome from this set? True = active, False = inactive

## Task Check the results log: what was the call for `O=C(CC(=O)N(C(=O)c1ccccc1)c1ccc(Cl)cc1)N/N=C\c1cc(/N=N/c2ccccc2Cl)ccc1O` ?
## Result False

## Task Just curious, what result did CCCCCCCCCCCCCCCCCCN(C)CC(COC)OP(=O)([O-])OCC[N+](C)(C)C (stereo not given) get here?
## Result True

## Task In this assay, the call recorded for `COc1c(C=O)c2c(c(OC)c1OC)-c1ccc(OC)c(=O)cc1[C@@H](NC(C)=O)CC2` was what?
## Result True

## Task Dear all, I need the recorded test outcome for NC(Cc1c[nH]c2ccccc12)P(=O)(O)O (stereo not given) , thank you.
## Result False

## Task Identify the outcome logged in this assay for the molecule shown: `O=[N+]([O-])c1cc2c(c3nonc13)OCCCCO2`
## Result False

## Task // param item: O=P1(NCCCl)OCCCN1CCCl (stereo not given) [IFOSFAMIDE] ; yields the recorded call
## Result False

## Task For this molecule, state the assay outcome: `CNC(C)(C)Cc1ccc(Cl)cc1`
## Result False

## Task Lab log entry: `CCOc1ccc(/N=C\c2cc(OC)c(OC)c(OC)c2)cc1` — outcome as called in the assay?
## Result False

## Task Dear all, I need the recorded test outcome for `NCc1c(C(N)=O)ncn1Cc1ccccc1` , thank you.
## Result False

## Task Query: recorded result category for `COc1ccc2c(c1)CCN=C2Cc1ccccc1CCCl` in this test
## Result False

## Task Dear colleague, could you share the recorded outcome for `O=C(O)c1nc(-c2ccccc2)ncc1-c1nnnn1-c1ccccc1` when you have a moment?
## Result False

## Task Hi, sorry to bother you, what did the test record for `CCC1=NC(C(F)(F)F)(C(F)(F)F)N=C(N2CCOCC2)O1` ?
## Result False

## Task For this molecule, state the assay outcome: `Cc1ccc(C(=O)Nc2ccccc2)cc1/N=N/N(C)C`
## Result False

## Task Record request — test call for `O=C(Nc1ccccc1)Oc1ccc(C(=S)Nc2ccc(Br)cc2)cc1`
## Result False

## Task What classification did COC(=O)c1ccc(C)cc1CC1Cc2cc(C)ccc2C1=O (stereo not given) end up with in this test?
## Result False

## Task Name the outcome recorded for `O=C(CCC(=O)Nc1cccc(C(F)(F)F)c1)CC(=O)c1ccc2ccccc2c1` in the assay.
## Result False

## Task Kindly provide the recorded test outcome for the following molecule: `O=S(=O)(c1ccccc1)n1c2cc3cccnc3nc2c2cccnc21`
## Result False

## Task Hi, sorry to bother you, what did the test record for `C=CC(C)(C)n1cc(C2=C(O)C(=O)C(c3c(CC=C(C)C)[nH]c4ccccc34)=C(O)C2=O)c2ccccc21` ?
## Result False

## Task Which outcome was assigned to `COC(=O)c1nsc(OC)c1Cl` in this test?
## Result False

## Task Returns: the outcome recorded for `O=c1c2ccccc2[nH]c2cc(O)cc(O)c12` in this assay.
## Result False

## Task Outcome? `O=C1c2ccccc2C(=O)N1CCCSc1ccccc1`
## Result False

## Task # outcome recorded in this test, key = `O=C(O)CC/C(=N\Nc1nsc2ccccc12)c1ccc(Cl)cc1`
## Result False

## Task Query: recorded result category for `Cn1c(-c2ccccc2)cc2c3ccsc3c3ccsc3c21` in this test
## Result False

## Task Hey, what did the test say about COc1ccc(N2C(=O)C3c4[nH]c5cc(Cl)ccc5c4C4CCC(C(C)(C)C)CC4C3C2=O)cc1 (stereo not given) ?
## Result False

## Task Hi, sorry to bother you, what did the test record for `CCCCOc1ccc(/C=C/C2=[N+](CCO)CCO2)cc1` ?
## Result False

## Task For `Cc1cc(S(=O)(=O)n2ccnc2O)c(SCCCN(C)C)cc1Cl` , what call appears in the results of this test?
## Result False

## Task Fill in: this test's call for `Cn1c(-c2ccc(C=O)o2)ccc1-c1ccc(C=O)o1` is ___
## Result False

## Task Field: outcome | Entry: COC(=O)[C@@]1(O)CC(C)C=C1C=O (stereo not given in full)
## Result False

## Task Per the assay record, what outcome was assigned to COc1nc(NC2OC(COC(C)=O)C(OC(C)=O)C(OC(C)=O)C2OC(C)=O)c(/N=C/C=N/c2c(NC3OC(COC(C)=O)C(OC(C)=O)C(OC(C)=O)C3OC(C)=O)nc(OC)n(C)c2=O)c(=O)n1C (stereo not given) ?
## Result False

## Task Call for entry `Cc1ccc(/N=N/NCCCCN/N=N/c2ccc(C)cc2)cc1` :
## Result False

## Task // return assay outcome for `c1ccc2c(NCCCCCCNc3c4ccccc4nc4ccccc34)c3ccccc3nc2c1`
## Result True

## Task Hi, do you know how `CN(C)c1ccc(/C=N\NC(=O)c2ccccc2Nc2ccccc2C(=O)N/N=C/c2ccc(N(C)C)cc2)cc1` came out in this test?
## Result False

## Task Each molecule tested received a call. Report the one for COc1ccc(C2S/C(=C\c3cccc([N+](=O)[O-])c3)C(=O)N2NC(=O)Cc2ccccc2)cc1 (stereo not given) .
## Result False

## Task Dear colleague, could you share the recorded outcome for `N=c1oc2c(Cl)cc(Cl)cc2cc1C(=O)Nc1cccc2ccccc12` when you have a moment?
## Result False

## Task For CC(=O)Nc1ccc(S(=O)(=O)[N-]C2C(=O)c3ccccc3C(=O)C2[n+]2ccccc2)cc1 (stereo not given) , which call appears in the assay record?
## Result False

## Task Returns: the outcome recorded for COC(=O)NC(Cc1ccccc1)NC(C)=O (stereo not given) in this assay.
## Result False

## Task Any idea what this test logged for COC1(OC)N=C(N)C2(C#N)C(C)=C3NCN(C)N=C3C12C#N (stereo not given) ?
## Result False

## Task Name the outcome recorded for CC1(C)OC(=O)C(=C2CC(c3ccccc3)c3ccccc32)C(=O)O1 (stereo not given) in the assay.
## Result False

## Task Hey, what did the test say about `Nc1ccccc1C(=O)NNC(=O)c1ccccc1N` ?
## Result False

## Task What outcome does the record of this test show for `Cc1cc(C)c(-n2c(C)c(C)c(C#N)c2N)c(C)c1` ?
## Result False

## Task Recorded call for `Cc1cc(C)c2c(=O)n(CN3CCC(C#N)(c4ccccc4)CC3)sc2n1` ?
## Result False

## Task State the result this test recorded for CCOc1ccc(C(C)c2cc3c(cc2OC)OCO3)cc1 (stereo not given) .
## Result True

## Task Status in this test for `COC(=O)/C=C1/SC(/C(=C(/[O-])OC)[n+]2ccc3ccccc3c2)=NC1=O` ?
## Result False

## Task What call does the record list for `Cc1cc(N(CCC#N)S(=O)(=O)c2ccccc2)ccc1C=O` ?
## Result False

## Task Any idea what this test logged for `CCN(C(C)=N)c1ccccc1` ?
## Result False

====

Field: GI50. Provide a value for each of the molecules that follow.
- Tested on: SF-268
- ASSAY DETAILS: NCI tumour cell line growth inhibition, 48 h
Activity calls are given as the source filed them. Rule as the data show it: active = GI50 up to about 1.1 µM and inactive = higher.

Record summary for CC1C=CC(C)C2(O)C(=O)NC(O)C12 (stereo unspecified) : reported GI50 = > 100 µM (inactive)

Value of measured GI50 for the entry C=C1C(=O)OC2/C=C(\C)C(=O)CC3OC(C)(C)OC3(C)CC(OC(=O)/C(C)=C/C)C12 (stereo unspecified) : 12.6 µM (inactive)

Quick note, GI50 for C=C(C)C(O)C(O)c1c(OC)ccc2ccc(=O)oc12 (stereo unspecified) landed at > 100 µM (inactive)

So, `Cc1cc(N(CCC#N)S(=O)(=O)c2ccccc2)ccc1C=O` ? Its GI50 was > 100 µM (inactive)

Record `O=S(=O)(N/N=C/c1cccc(/C=N/NS(=O)(=O)c2ccccc2)c1)c1ccccc1` , field GI50: > 100 µM (inactive)

Summary for this molecule, `N[C@@H]1c2c(Br)sc(Br)c2C(=O)[C@H]1Br` : GI50 is 31.2 µM (inactive)

According to the records, this molecule COc1cc2c(cc1OC)CC(N=[N+]=[N-])c1cc(OC)c(OC)cc1/C=C\2 (stereo unspecified) displays GI50 of 51.8 µM (inactive)

According to the records, this molecule `O=C(/C=C/c1ccc(Cl)c(Cl)c1)Oc1ccc(/C=C2\CCCCC2=O)cc1` displays GI50 of 39 µM (inactive)

Kindly note the recorded GI50 for `CN(C)S(=O)(=O)Nc1nnc(S(N)(=O)=O)s1` , which is > 100 µM (inactive)

Summary for this molecule, `Oc1ccc2c(c1)-c1c(c3cc(O)ccc3n1CCN1CCOCC1)CC2` : GI50 is 44.8 µM (inactive)

Looking up `O=c1c2ccccc2oc2nc3n(c(=O)c12)CCCS3` , I see its GI50 listed as > 100 µM (inactive)
